- TARGET ENTITY: rat brain farnesyl protein transferase (Rattus norvegicus, UniProt Q02293+Q04631)
- Construct: 40-fold purified rat brain farnesyl protein transferase; from tissue; host or cells: rat brain
- PROTOCOL SUMMARY: Protein:farnesyltransferase (PFT/FPT) inhibitory activity assay
- Assay type: biochemical
- RECORDED CONDITIONS: Hepes (without 5 mM phosphate); read-out: Farnesyl Protein Transferase Inhibition, Hepes, IC50
Reported IC50 values are given for each entry in this list.
VALUE TYPE: IC50

In [3]: df
Out[3]:
                                   compound                             target_entity  value_type  experimental_result
0  CCNC(=O)[C@H](Cc1c[nH]cn1)NC(=O)C(Cc1cccc2ccccc12)Cc1cccc2ccccc12 [Example 34]  rat brain farnesyl protein transferase (Rattus norvegicus, UniProt Q02293+Q04631)        IC50               2.9 µM
1  CCN(CC)CCOC(=O)[C@H](Cc1c[nH]cn1)NC(=O)C(Cc1cccc2ccccc12)Cc1cccc2ccccc12 [Example 21]  rat brain farnesyl protein transferase (Rattus norvegicus, UniProt Q02293+Q04631)        IC50                21 µM
2  NC(=O)[C@H](Cc1c[nH]cn1)NC(=O)C(Cc1cccc2ccccc12)Cc1cccc2ccccc12 [Example 24]  rat brain farnesyl protein transferase (Rattus norvegicus, UniProt Q02293+Q04631)        IC50               5.3 µM
3  CNC(=O)[C@H](Cc1c[nH]cn1)NC(=O)C(Cc1cccc2ccccc12)Cc1cccc2ccccc12 [Example 33]  rat brain farnesyl protein transferase (Rattus norvegicus, UniProt Q02293+Q04631)        IC50              0.61 µM

---

Consider the following compounds and their measured pIC50 readings.
- TARGET ENTITY: rat brain farnesyl protein transferase (Rattus norvegicus, UniProt Q02293+Q04631)
- Construct: 40-fold purified rat brain farnesyl protein transferase; from tissue; host or cells: rat brain
- PROTOCOL SUMMARY: Protein:farnesyltransferase (PFT/FPT) inhibitory activity assay
- Format: biochemical
- RECORDED CONDITIONS: Hepes/5 mM PO4^-3, pH 7.4; read-out: Farnesyl Protein Transferase Inhibition, Hepes/5 mM PO4^-3, IC50
pIC50: −log10 of the molar value.
VALUE TYPE: pIC50

                                 smiles_data  value_type  experimental_result
 0  O=C(N[C@@H](Cc1c[nH]cn1)C(=O)OCCOCc1ccccc1)C(Cc1cccc2ccccc12)Cc1cccc2ccccc12       pIC50                 6.27
 1  O=C(N[C@@H](Cc1c[nH]cn1)C(=O)NCCc1ccccc1)C(Cc1cccc2ccccc12)Cc1cccc2ccccc12       pIC50                 5.22
 2  CCCCOC(=O)[C@H](Cc1c[nH]cn1)NC(=O)C(Cc1cccc2ccccc12)Cc1cccc2ccccc12       pIC50                 5.96
 3  N#CCCCOC(=O)[C@H](Cc1c[nH]cn1)NC(=O)C(Cc1cccc2ccccc12)Cc1cccc2ccccc12       pIC50                 6.43
 4  NC(=O)[C@H](Cc1c[nH]cn1)NC(=O)C(Cc1cccc2ccccc12)Cc1cccc2ccccc12       pIC50                 5.42
 5  OC[C@H](Cc1c[nH]cn1)NCC(Cc1cccc2ccccc12)Cc1cccc2ccccc12       pIC50                 6.30
 6  COC(=O)[C@H](Cc1c[nH]cn1)NC(=O)C(Cc1csc2ccccc12)Cc1csc2ccccc12       pIC50                 6.01
 7  CCCOC(=O)[C@H](Cc1c[nH]cn1)NC(=O)C(Cc1cccc2ccccc12)Cc1cccc2ccccc12       pIC50                 7.00
 8  CN(C)C(=O)[C@H](Cc1c[nH]cn1)NC(=O)C(Cc1cccc2ccccc12)Cc1cccc2ccccc12       pIC50                 5.42
 9  O=C(N[C@@H](Cc1c[nH]cn1)C(=O)NCCOCc1ccccc1)C(Cc1cccc2ccccc12)Cc1cccc2ccccc12       pIC50                 6.26
10  NS(=O)(=O)c1ccc(CCNC(=O)[C@H](Cc2c[nH]cn2)NC(=O)C(Cc2cccc3ccccc23)Cc2cccc3ccccc23)cc1       pIC50                 4.85
11  O=C(N[C@@H](Cc1c[nH]cn1)C(=O)OCCc1cccs1)C(Cc1cccc2ccccc12)Cc1cccc2ccccc12       pIC50                 5.96
12  CCCNC(=O)[C@H](Cc1c[nH]cn1)NC(=O)C(Cc1cccc2ccccc12)Cc1cccc2ccccc12       pIC50                 5.25
13  CCNC(=O)[C@H](Cc1c[nH]cn1)NC(=O)C(Cc1cccc2ccccc12)Cc1cccc2ccccc12       pIC50                 5.70
14  CC(C)NC(=O)[C@H](Cc1c[nH]cn1)NC(=O)C(Cc1cccc2ccccc12)Cc1cccc2ccccc12       pIC50                 5.46

---

- TARGET ENTITY: rat brain farnesyl protein transferase (Rattus norvegicus, UniProt Q02293+Q04631)
- Construct: 40-fold purified rat brain farnesyl protein transferase; from tissue; host or cells: rat brain
- PROTOCOL SUMMARY: Protein:farnesyltransferase (PFT/FPT) inhibitory activity assay
- Format: biochemical
- RECORDED CONDITIONS: Hepes (without 5 mM phosphate); read-out: Farnesyl Protein Transferase Inhibition, Hepes, IC50
pIC50: −log10 of the molar value. Counter-ions that a name gives are not always drawn.
pIC50: recorded values
VALUE TYPE: pIC50

>>> df
                                    compound  value_type  experimental_result
 0  O=C(N[C@@H](Cc1c[nH]cn1)C(=O)OCCc1cccs1)C(Cc1cccc2ccccc12)Cc1cccc2ccccc12       pIC50                 5.96
 1  O=C(N[C@@H](Cc1c[nH]cn1)C(=O)OCCN1CCOCC1)C(Cc1cccc2ccccc12)Cc1cccc2ccccc12       pIC50                 5.24
 2  O=C(N[C@@H](Cc1c[nH]cn1)C(=O)OCCSSCCO)C(Cc1cccc2ccccc12)Cc1cccc2ccccc12       pIC50                 5.89
 3  O=C(N[C@H](CO)Cc1c[nH]cn1)C(Cc1cccc2ccccc12)Cc1cccc2ccccc12       pIC50                 5.52
 4  CCCCOC(=O)[C@H](Cc1c[nH]cn1)NC(=O)C(Cc1cccc2ccccc12)Cc1cccc2ccccc12       pIC50                 5.89
 5  CC(C)OC(=O)[C@H](Cc1c[nH]cn1)NC(=O)C(Cc1cccc2ccccc12)Cc1cccc2ccccc12       pIC50                 6.74
 6  O=C(N[C@@H](Cc1c[nH]cn1)C(=O)OCc1ccsc1)C(Cc1cccc2ccccc12)Cc1cccc2ccccc12       pIC50                 5.46
 7  COC(=O)[C@H](Cc1c[nH]cn1)NC(=O)C(Cc1cccc2c1CCCC2)Cc1cccc2c1CCCC2       pIC50                 6.38
 8  CCC(C)OC(=O)[C@H](Cc1c[nH]cn1)NC(=O)C(Cc1cccc2ccccc12)Cc1cccc2ccccc12 (mixture of isomers)       pIC50                 6.09
 9  CCOC(=O)[C@H](Cc1c[nH]cn1)NC(=O)C(Cc1cccc2ccccc12)Cc1cccc2ccccc12       pIC50                 6.89
10  N#CCCOC(=O)[C@H](Cc1c[nH]cn1)NC(=O)C(CC1CCCC2CCCCC21)CC1CCCC2CCCCC21 (stereo partly shown)       pIC50                 6.31
11  N#CCCOC(=O)[C@H](Cc1c[nH]cn1)NC(=O)C(Cc1cccc2c1CCCC2)Cc1cccc2c1CCCC2       pIC50                 6.54
12  NS(=O)(=O)c1ccc(CCNC(=O)[C@H](Cc2c[nH]cn2)NC(=O)C(Cc2cccc3ccccc23)Cc2cccc3ccccc23)cc1       pIC50                 4.82
13  O=C(N[C@@H](Cc1c[nH]cn1)C(=O)NCCOCc1ccccc1)C(Cc1cccc2c1CCCC2)Cc1cccc2c1CCCC2       pIC50                 6.11
14  CC(C)=CCOC(=O)[C@H](Cc1c[nH]cn1)NC(=O)C(Cc1cccc2ccccc12)Cc1cccc2ccccc12       pIC50                 5.28
15  O=C(N[C@@H](Cc1c[nH]cn1)C(=O)OCC1CC1)C(Cc1cccc2ccccc12)Cc1cccc2ccccc12       pIC50                 6.40
16  N#CCCCOC(=O)[C@H](Cc1c[nH]cn1)NC(=O)C(Cc1cccc2ccccc12)Cc1cccc2ccccc12       pIC50                 6.36
17  O=C(N[C@@H](Cc1c[nH]cn1)C(=O)NCCN1CCOCC1)C(Cc1cccc2ccccc12)Cc1cccc2ccccc12       pIC50                 4.59
18  N#CCOC(=O)[C@H](Cc1c[nH]cn1)NC(=O)C(Cc1cccc2ccccc12)Cc1cccc2ccccc12       pIC50                 6.40
19  O=C(N[C@@H](Cc1c[nH]cn1)C(=O)OC1CCCCC1)C(Cc1cccc2ccccc12)Cc1cccc2ccccc12       pIC50                 4.70
20  CCN(CC)CCNC(=O)[C@H](Cc1c[nH]cn1)NC(=O)C(Cc1cccc2ccccc12)Cc1cccc2ccccc12       pIC50                 4.72
21  O=C(N[C@@H](Cc1c[nH]cn1)C(=O)NCCO)C(Cc1cccc2ccccc12)Cc1cccc2ccccc12       pIC50                 5.49
22  C#CCCOC(=O)[C@H](Cc1c[nH]cn1)NC(=O)C(Cc1cccc2ccccc12)Cc1cccc2ccccc12 [Example 44, trifluoroacetate salt]       pIC50                 6.64
23  O=C(N[C@@H](Cc1c[nH]cn1)C(=O)NCCc1ccccc1)C(Cc1cccc2ccccc12)Cc1cccc2ccccc12       pIC50                 5.32
24  O=C(N[C@@H](Cc1c[nH]cn1)C(=O)OCCc1ccccc1)C(Cc1cccc2ccccc12)Cc1cccc2ccccc12       pIC50                 7.15
25  CNC(=O)[C@H](Cc1cncn1C)NC(=O)C(Cc1cccc2ccccc12)Cc1cccc2ccccc12       pIC50                 6.21
26  O=C(N[C@@H](Cc1c[nH]cn1)C(=O)O)C(Cc1cccc2ccccc12)Cc1cccc2ccccc12       pIC50                 6.00
27  O=C(N[C@@H](Cc1c[nH]cn1)C(=O)OCCOCc1ccccc1)C(Cc1cccc2ccccc12)Cc1cccc2ccccc12       pIC50                 6.24
